EXPERIMENTAL DETAILS: inhibitors of TNFa-induced NFkB p65 translocation, primary screen, imaging, HUVEC, MLSMR starter and 10KST1 sets (AID 438);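 also: compound added about 3h40 before a 20 min TNFalpha stimulation; signal is the nuclear over cytoplasmic p65 intensity ratio per well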
MEASUREMENT CONDITIONS: HUVEC TNFa-induced p65 nuclear translocation; at 2 µM, hits give high values, 0% TNFa-plus-vehicle, 100% no-TNFa wells
QUANTITY: inhibition (%)
// note: answer is a bare numeric in %

Documented inhibition of O=c1c2[nH]c3ccc(Cl)cc3c2ncn1Cc1ccccn1 : -3.6

Lab note: COc1ccc(C(=O)NCc2nc3ccccc3[nH]2)cc1OC gave inhibition of -0.5

Record Cc1ccc2[nH]c(=O)c(C(c3nnnn3CCc3ccccc3)N3CCOCC3)cc2c1 (stereo unspecified) . Reported inhibition: -3.9

Lab book: inhibition of CCCN(CCO)Cc1cccc(Br)c1 noted as -1.1

Record Cc1ccc(OC(=O)NC2CCS(=O)(=O)C2)cc1C (stereo unspecified) . Reported inhibition: -0.3

What the record says about Cc1cnc(-c2nnc(N(C)C(=O)C3CCOC3)s2)cn1 (stereo unspecified) : inhibition is -12.1

What the record says about O=C(CN(CC1CCCO1)S(=O)(=O)c1ccc(S(=O)(=O)NC2CC2)cc1)Nc1ccccc1 (stereo unspecified) : inhibition is -15.8

Item: CCCN1C(=O)c2cc(C(=O)O)ccc2C1O (stereo unspecified) | inhibition: 8.1

Please fill in: inhibition reported for O=C(NCC1CCCO1)c1cc(-c2ccncc2)nc2ccc(S(=O)(=O)N3CCOCC3)cc12 (stereo unspecified) = 2.1

So, Cc1cc(C)cc(N2C(=O)C3C4C=CC(C4)C3C2=O)c1 (stereo unspecified) ? Its inhibition was -4.8

Form: compound = CC(C)Oc1ccc(-c2nn(-c3ccccc3)cc2/C=c2\sc3ncnn3c2=O)cc1 ; inhibition = -4.6

Ref: PubChem BioAssay
